tested on: HO-1-u-1 (Oral Cavity Carcinoma); experiment: Bliss excess, mean over the matrix (fraction); higher = more synergy;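 also: after 72 h of two-drug dosing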
OUTCOME MEASURE: Bliss excess

CN(C)CCCOc1ccc(-c2ccc3ncc4c(c3c2)n(C2CCOCC2)c(=O)n4C)cn1 [AZD0156] + CCN(CCO)CCCOc1ccc2c(Nc3cc(CC(=O)Nc4cccc(F)c4)[nH]n3)ncnc2c1 [AZD2811] (first compound max 1 µM, 7x7, partner max 1 µM) : 0.0299

Please find the next molecule below.
Query string: Check the records and state Bliss excess for CC1(C)CCC(CN2CCN(c3ccc(C(=O)NS(=O)(=O)c4ccc(NCC5CCOCC5)c([N+](=O)[O-])c4)c(Oc4cnc5[nH]ccc5c4)c3)CC2)=C(c2ccc(Cl)cc2)C1 [Venetoclax] + CN(C)CCCOc1ccc(-c2ccc3ncc4c(c3c2)n(C2CCOCC2)c(=O)n4C)cn1 [AZD0156] (first compound max 1 µM, 7x7, partner max 1 µM)
Result string: -0.003

Attribution: the supplement of paper PMC11061612
